test system: A549 NSCLC cells; experiment: MTT cell viability assay, A549; assay type: cell-based, human; details: IC50 HDF / IC50 A549
endpoint_name: SI (Selectivity Index)
Reply: number alone, nothing else.

Nc1ccc(Oc2ccc3c(=O)cc(-c4cccc(Oc5ccccc5)c4)oc3c2)cc1 [APF-3]
2
Nc1ccc(Oc2ccc3oc(-c4cccc(Oc5ccccc5)c4)cc(=O)c3c2)cc1 [APF-1]
16
COc1cccc2c1C(=O)c1c(O)c3c(c(O)c1C2=O)C[C@@](O)(C(=O)CO)C[C@@H]3O[C@H]1C[C@H](N)[C@H](O)[C@H](C)O1 [Doxorubicin, reference compound]
18

--- query ---
Request: Please tell me: SI (Selectivity Index) of Nc1ccc(Oc2ccc3oc(-c4ccc(Oc5ccccc5)cc4)cc(=O)c3c2)cc1 [APF-5] , system A549 NSCLC cells?
Result: 7

* * *

tested on: H1975 NSCLC cells; experiment: MTT cell viability assay, H1975; type: cell-based, human; conditions: Homo sapiens, NCI-H1975, 72 h, H1975, 72 h, MTT
Readings of log10 IC50 for the listed compounds
In our notation, the value equals log10 of IC50 in µM.

Nc1ccc(Oc2ccc3oc(-c4ccc(Oc5ccccc5)cc4)cc(=O)c3c2)cc1
1.00
COc1cccc2c1C(=O)c1c(O)c3c(c(O)c1C2=O)C[C@@](O)(C(=O)CO)C[C@@H]3O[C@H]1C[C@H](N)[C@H](O)[C@H](C)O1 [Doxorubicin, reference compound]
0.40
Nc1ccc(Oc2ccc3c(=O)cc(-c4cccc(Oc5ccccc5)c4)oc3c2)cc1
1.60
Nc1ccc(Oc2ccc3oc(-c4ccccc4)cc(=O)c3c2)cc1
1.70

Request: Looking for the measured log10 IC50 of Nc1ccc(Oc2ccc3oc(-c4cccc(Oc5ccccc5)c4)cc(=O)c3c2)cc1 , can you help?
Result: 0.30

* * *

test system: H1975 NSCLC cells; assay: MTT cell viability assay, H1975; type: cell-based, human; settings: IC50 HDF / IC50 H1975
endpoint_name: SI (Selectivity Index)
Reply: number alone, nothing else.

Nc1ccc(Oc2ccc3c(=O)cc(-c4cccc(Oc5ccccc5)c4)oc3c2)cc1
2
COc1cccc2c1C(=O)c1c(O)c3c(c(O)c1C2=O)C[C@@](O)(C(=O)CO)C[C@@H]3O[C@H]1C[C@H](N)[C@H](O)[C@H](C)O1 [Doxorubicin, reference compound]
6

Request: Looking for the measured SI (Selectivity Index) of Nc1ccc(Oc2ccc3oc(-c4ccc(Oc5ccccc5)cc4)cc(=O)c3c2)cc1 , can you help?
Result: 5.5

* * *

System: H1975 NSCLC cells
Experiment: MTT cell viability assay, H1975
Assay type: cell-based, human
Conditions: H1975, 72 h, MTT
Method: The human non-small cell lung cancer (NSCLC) and Human Dermal Fibroblasts (HDF) cell lines were all obtained from the American Type Culture Collection (ATCC). […] The number of metabolically active cells, and thus cell viability, was assessed by a 3-(4,5-dimethylthiazol-2-yl)-2,5-diphenyltetrazolium bromide (MTT) assay as previously described. […] The relative cell viability (%) was calculated as (OD570 of treated samples/OD570 of untreated samples) × 100. […]
endpoint_name: pIC50
Scale note: pIC50 = -log10(concentration in M).

Request: Please tell me: pIC50 of Nc1ccc(Oc2ccc3oc(-c4cccc(Oc5ccccc5)c4)cc(=O)c3c2)cc1 , system H1975 NSCLC cells?
Result: 5.64
